assayed.system: T1, HNRNPH1 full-length (UniProt P31943 1-449)
T1 sequence: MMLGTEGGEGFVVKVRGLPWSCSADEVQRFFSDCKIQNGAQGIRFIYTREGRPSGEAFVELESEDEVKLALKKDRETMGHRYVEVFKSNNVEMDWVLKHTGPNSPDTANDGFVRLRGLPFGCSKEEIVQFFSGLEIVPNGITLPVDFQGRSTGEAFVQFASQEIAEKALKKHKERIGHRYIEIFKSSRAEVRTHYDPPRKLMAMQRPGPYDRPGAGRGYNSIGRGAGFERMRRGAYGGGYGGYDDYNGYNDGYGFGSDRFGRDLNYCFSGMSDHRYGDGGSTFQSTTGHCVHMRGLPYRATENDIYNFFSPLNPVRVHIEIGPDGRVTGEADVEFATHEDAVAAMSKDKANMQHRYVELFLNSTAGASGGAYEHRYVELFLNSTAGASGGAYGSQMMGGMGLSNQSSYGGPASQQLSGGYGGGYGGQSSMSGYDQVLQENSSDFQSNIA
assay.procedure: antibody-based RNA binding assay
experimental.endpoint: Kd (nM)
Numbers only, in nM.

binder ACCGGGGCAGGGGAAGAGGGGGAUU (structured_RNA) [rG1 3'-biotin] , Kd observed: 30

Source listed as paper PMC6859848.
